Recorded values, source PubChem BioAssay (NCI).

- System: SR leukemia
- assay.name: NCI-60 one-dose screen, 48 h
- run.conditions: 10 µM
Compounds without any hit were thinned out: in the full panel of roughly 83,000, 20% have a hit. Calls of active or inactive are those of the source. The calls were made as follows: active = growth percent below 10; inactive = the rest.
Classes used: active, inactive

compound	assigned.label
COc1ccc(NC(=O)CCl)cc1	inactive
O=C(O)CSCSCC(=O)O	inactive
CC(C)(N)COS(=O)(=O)O	inactive
Oc1ccccc1O	inactive
NCCC(=O)c1ccc(Cl)cc1	inactive
Cc1c(C(=O)O)c(=O)n(-c2ccccc2)n1C	inactive
O=C(O)/C=C/c1ccc2c(c1)CCC2	inactive
CCOC(=O)CNN	inactive
Cc1ccccc1C1N=C2Oc3ccccc3C=C2C(=O)N1 (centres undefined)	inactive
Cc1ccc(/C(C#N)=C/c2ccc3c(c2)OCO3)cc1	inactive
Cc1ccc(N)cc1[N+](=O)[O-]	inactive
COc1cc([C@@H]2c3cc4c(cc3[C@H](O)[C@H]3COC(=O)[C@H]23)OCO4)cc(OC)c1OC	active
COc1nc(N)nc2c1ncn2C1OC(CO)CC1O (centres undefined)	inactive
CC1CC(O)CC(C)(C)C1 (centres undefined)	inactive
